Values compiled from ChEMBL document CHEMBL1201862.

Listed compounds paired with reported GI50
Tested on: SW-620
Test: NCI tumour cell line growth inhibition, 48 h
Activity calls are given as the source filed them. Cut-off read from the data, not from the text of the source: active = GI50 up to about 1.1 µM and inactive = higher.

{"columns": ["compound", "targetSystem", "recordedMeasurement"],
 "data": [
  ["CCN1C(NN)=NS(=O)(=O)c2ccccc21", "SW-620", "> 100 µM (inactive)"],
  ["CC(=O)Oc1c(N2CCCCC2)c(C(=O)c2ccccc2)c(O)c2ccn(N(C)C)c12", "SW-620", "17.3 µM (inactive)"],
  ["CCOC(=O)[C@@H]1C2C(=C[C@H]3[C@H]1C(=O)N1CCCC[C@H]31)CCCN2C(=O)OCc1ccccc1 (some centres not stated)", "SW-620", "52.2 µM (inactive)"],
  ["CCOc1ccccc1NC(=O)C(=O)CC(=O)c1c(C)[n+]([O-])c2ccccc2[n+]1[O-]", "SW-620", "> 100 µM (inactive)"],
  ["COC(=O)N1CC[C@@H]2CCC=C(c3cccc4c3OCO4)[C@@H]21", "SW-620", "> 100 µM (inactive)"],
  ["CCOC(=O)Oc1cc2c(ccn2C)c2c1c1ccccc1n2C(=O)OCC", "SW-620", "> 100 µM (inactive)"],
  ["COC(=O)C1CCc2c(OC)ccc(OC)c2C1=O (configuration not stated)", "SW-620", "> 100 µM (inactive)"],
  ["N#CC(C(=O)CCC(=O)C(C#N)c1ccccc1)c1ccccc1 (configuration not stated)", "SW-620", "> 100 µM (inactive)"],
  ["CC/C(=N/O)c1ccc(Br)s1", "SW-620", "> 100 µM (inactive)"],
  ["COc1cccc2c1OCC1Cc3ccccc3OC21 (configuration not stated)", "SW-620", "41.8 µM (inactive)"]
]}

Record request: GI50 value, item NC(=O)c1c2c(cc3c(=O)c4ccccc4[nH]c13)CCCC2
> 100 µM (inactive)

Another: COc1ccc(/C=C2\CCS(=O)(=O)c3ccccc3C2=O)cc1
20.9 µM (inactive)

Another: O=C(NC1CCN(Cc2ccccc2)CC1)c1ccccc1I
19.7 µM (inactive)

Another: COC(=O)c1ccccc1NC(=O)C(=O)Cc1nc2c3c(ccc2nc1O)C(=O)c1ccccc1C3=O
5.56 µM (inactive)

Another: COc1ccc(/C=c2/sc3n(c2=O)NC2(CCCCC2)NN=3)cc1
> 100 µM (inactive)

Another: Cc1ccc([N+](=O)[O-])cc1S(=O)(=O)Nc1ccc(C(=O)/C=C/c2cccs2)cc1
22.4 µM (inactive)

Another: C/C(=N\Nc1ccc([N+](=O)[O-])cc1)C(=O)N(C)Nc1ccccc1
> 100 µM (inactive)

Another: CCOC(=O)/C(=C\c1c[nH]c2ccccc12)P(=O)(OCC)OCC
45.7 µM (inactive)

Another: Cc1ncn(-c2ccccc2O)c1C
> 100 µM (inactive)

Another: C=CCN(CCN(CC=C)S(=O)(=O)c1ccc(C)cc1)S(=O)(=O)c1ccc(C)cc1
> 100 µM (inactive)

Another: COC(=O)C[C@H](CCSC)NC(=O)C[C@H](CCSC)NC(=O)C[C@H](CCSC)NC(=O)OC(C)(C)C
> 100 µM (inactive)

Another: Cc1ccc(S(=O)(=O)NC2=NS(=O)(=O)c3cc(C)c(Cl)cc3S2)cc1
71.6 µM (inactive)
